# experimental_system: T1, 4H570-bA
# T1 chain: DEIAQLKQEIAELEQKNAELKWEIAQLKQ
# protocol: two-hybrid library CCNG1;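 also: natural log of median RNA to DNA barcode read ratio; higher means stronger binding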
Quick reference: interaction score of the listed items.
Please respond with just the number, no unit label.

Worked cases, interaction score given:
| binder | interaction score |
| --- | --- |
| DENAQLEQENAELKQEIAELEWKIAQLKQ [4H1222-bA] | 0.341 |
| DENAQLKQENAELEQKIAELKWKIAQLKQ [4H1710-bA] | -1.24 |
| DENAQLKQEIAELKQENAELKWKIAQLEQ [4H1629-bA] | -0.594 |
| DKNAQLKQEIAELEQKIAELKWENAQLKQ [4H3628-bA] | -0.226 |
| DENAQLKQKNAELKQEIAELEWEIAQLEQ [4H1985-bA] | -1.97 |

Incoming: Reported interaction score for DKNAQLKQKNAELEQEIAELEWKIAQLKQ [4H3974-bA] : what is it?
Outgoing: -0.136

Incoming: # lookup: interaction score of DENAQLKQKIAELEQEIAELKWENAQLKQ [4H1804-bA]
Outgoing: -0.765
